Please provide measured EC50 for the entries that follow.
Molecular target: FXR (Homo sapiens (Human), UniProt Q96RI1)
Sequence (Q96RI1 262-486): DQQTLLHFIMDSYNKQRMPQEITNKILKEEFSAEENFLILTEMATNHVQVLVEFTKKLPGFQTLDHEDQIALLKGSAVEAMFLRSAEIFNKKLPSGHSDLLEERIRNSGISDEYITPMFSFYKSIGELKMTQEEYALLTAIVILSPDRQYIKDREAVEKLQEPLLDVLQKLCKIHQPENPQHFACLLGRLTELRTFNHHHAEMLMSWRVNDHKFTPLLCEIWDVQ
Assay: transient human FXR/Gal4-luciferase reporter assay
Type: cell-based
Settings: Gal4-hFXR fusion construct, HEK293 reporter cells; response relative to 8 μM GW-4064
Express your answer in nM, writing the number without its unit.

Please give the documented EC50 of COc1cc(-c2cccc(N(CC34CCC(c5nnc(C)s5)(CC3)CC4)C(=O)C3CCCC3)c2)ccn1 [Example 233]
1100

Please give the documented EC50 of CCOc1ncc(-c2cccc(N(CC34CCC(c5nc(C(C)(C)C)no5)(CC3)CO4)C(=O)C34CC(F)(C3)C4)c2)cn1 [Example 553]
1590

Please give the documented EC50 of COc1nccc(-c2cccc(N(CC34CCC(c5nc(C6CC6)no5)(CC3)CC4)C(=O)C3CC(F)(F)C3)c2)n1 [Example 243]
428

Please give the documented EC50 of CC(C)(C#N)Oc1ccc(-c2ccnc(N(CC34CCC(c5noc(C6(F)CC6)n5)(CC3)CC4)C(=O)OC(C)(C)C(F)(F)F)c2)cc1 [Example 625]
18

Please give the documented EC50 of CCOc1ncc(-c2cncc(N(CC34CCC(c5nc(C6CC6)no5)(CC3)CC4)C(=O)C34CC(F)(C3)C4)c2)cn1 [Example 423]
238

Please give the documented EC50 of O=C(N(CC12CCC(c3nc(C4CC4)no3)(CC1)CC2)c1cccc(-c2ccc3[nH]c(=O)oc3c2)c1)C12CC(F)(C1)C2 [Example 261]
48

###

Target: FXR (Homo sapiens (Human))
Assay: transient human FXR/Gal4-luciferase reporter assay
Format: cell-based
Conditions: Gal4-hFXR fusion construct, HEK293 reporter cells; response relative to 8 μM GW-4064
pEC50: −log10 of the molar value.
Criterion: pEC50 meeting or surpassing 7. Met: true (1). Not met: false (0).

Would you say Cc1nc2c(C(F)(F)F)cc(-c3cccc(N(CC45CCC(c6nc(C7CC7)no6)(CC4)CC5)C(=O)C45CC(F)(C4)C5)c3)cn2n1 shows pEC50 at minimum 7?
false (0)

Would you say CC(C)Oc1ccc(-c2cccc(N(CC34CCC(c5cc(C(C)(F)F)nn5C)(CC3)CC4)C(=O)NC(C)(C)C)c2)cc1 shows pEC50 at minimum 7?
true (1)

Would you say O=C(N(CC12CCC(c3nc(C4CC4)no3)(CC1)CC2)c1cccc(-c2ccn3ccnc3c2)c1)C12CC(F)(C1)C2 shows pEC50 at minimum 7?
false (0)

Would you say O=C(N(CC12CCC(c3nc(C4CC4)no3)(CC1)CC2)c1cccc(-c2cccc(OC(F)(F)C(F)F)c2)c1)C12CC(F)(C1)C2 shows pEC50 at minimum 7?
false (0)

Would you say Cn1ncc2cc(C#N)c(-c3cccc(N(CC45CCC(c6nc(C7CC7)no6)(CC4)CC5)C(=O)C45CC(F)(C4)C5)c3)nc21 shows pEC50 at minimum 7?
false (0)

Would you say O=C(N(CC12CCC(c3nc(C4CC4)no3)(CC1)CC2)c1cncc(-c2cnc(C(F)(F)F)nc2)c1)C12CC(F)(C1)C2 shows pEC50 at minimum 7?
false (0)

Would you say CC(C)(C)c1nc(C23CCC(CN(C(=O)C45CC(F)(C4)C5)c4cccc(-c5ccc(NS(=O)(=O)C(F)(F)F)cc5)c4)(CC2)CC3)no1 shows pEC50 at minimum 7?
false (0)

Would you say Cc1nc2ccc(-c3cccc(N(CC45CCC(c6noc(C7(C)CC7)n6)(CC4)CC5)C(=O)C45CC(F)(C4)C5)c3)cc2s1 shows pEC50 at minimum 7?
true (1)

Would you say Cc1nc2ccc(-c3cccc(N(CC45CCC(c6nc(C7CC7)no6)(CC4)OC5)C(=O)C45CC(F)(C4)C5)c3)cc2s1 shows pEC50 at minimum 7?
false (0)

Would you say COc1cc(-c2cccc(N(CC34CCC(c5nnc(C)o5)(CC3)CC4)C(=O)C3CCC3)c2)ccn1 shows pEC50 at minimum 7?
false (0)

Would you say CC(C)(C)c1nc(C23CCC(CN(C(=O)C45CC(F)(C4)C5)c4cccc(-c5ccc(NS(C)(=O)=O)cc5)c4)(CC2)CC3)no1 shows pEC50 at minimum 7?
true (1)

Would you say CS(=O)(=O)Nc1ccc(-c2cccc(N(CC34CCC(c5ccc(C6(C#N)CC6)cc5)(CC3)OC4)C(=O)C34CC(F)(C3)C4)c2)cc1 shows pEC50 at minimum 7?
false (0)

Would you say CCOc1ccc(-c2cccc(N(CC34CCC(c5cnc(C(F)(F)F)nc5)(CC3)OC4)C(=O)C34CC(F)(C3)C4)c2)cc1 shows pEC50 at minimum 7?
false (0)

Would you say CC(C)(C#N)Oc1ccc(-c2cc(N(CC34CCC(c5noc(C(C)(C)F)n5)(CC3)CC4)C(=O)[C@H]3C[C@](O)(C(F)(F)F)C3)ccc2F)cc1 shows pEC50 at minimum 7?
true (1)

Would you say CCOc1ncc(-c2cncc(N(CC34CCC(c5nc(C(C)(C)C)no5)(CC3)CC4)C(=O)C34CC(F)(C3)C4)c2)cn1 shows pEC50 at minimum 7?
false (0)

Would you say CC(C)(O)c1ccc(-c2cccc(N(CC34CCC(c5noc(C(C)(C)F)n5)(CC3)CC4)C(=O)N[C@H]3C[C@]4(C[C@@H](O)C4)C3)c2)cc1 (stereo partly shown) shows pEC50 at minimum 7?
true (1)

Would you say CS(=O)(=O)Nc1ccc(-c2cccc(N(CC34CCC(c5cc(C(F)(F)F)ccn5)(CC3)CC4)C(=O)C34CC(F)(C3)C4)c2)cc1 shows pEC50 at minimum 7?
false (0)

Would you say COCc1ccc(-c2cccc(N(CC34CCC(c5nc(C6CC6)no5)(CC3)CC4)C(=O)C34CC(F)(C3)C4)c2)cc1 shows pEC50 at minimum 7?
true (1)

Would you say CCOc1ncc(-c2cccc(N(CC34CCC(c5cc(C6CC6)nn5C)(CC3)CC4)C(=O)C34CC(F)(C3)C4)c2)cn1 shows pEC50 at minimum 7?
false (0)

Would you say O=C(N(CC12CCC(c3nc(C4CC4)no3)(CC1)CC2)c1cccc(-c2cnc3cccnn23)c1)C12CC(F)(C1)C2 shows pEC50 at minimum 7?
false (0)

Would you say CC(C)(O)c1ccc(-c2cccc(N(CC34CCC(c5noc(C(C)(C)F)n5)(CC3)CC4)C(=O)N[C@H]3CC[C@](C)(O)CC3)c2)cc1 shows pEC50 at minimum 7?
true (1)

Would you say CC(C)S(=O)(=O)Nc1ccc(-c2cccc(N(CC34CCC(c5noc(C(C)(C)C)n5)(CC3)CC4)C(=O)C34CC(F)(C3)C4)c2)cc1 shows pEC50 at minimum 7?
false (0)

###

Target: FXR (Homo sapiens (Human), UniProt Q96RI1)
Test: transient human FXR/Gal4-luciferase reporter assay
Type: cell-based
Conditions: Gal4-hFXR fusion construct, HEK293 reporter cells; response relative to 8 μM GW-4064
metric: EC50 (nM)
Express your answer in nM, writing the number without its unit.

Please give the documented EC50 of COCc1ccc(-c2cccc(N(CC34CCC(c5nc(C(C)C)no5)(CC3)CC4)C(=O)C34CC(F)(C3)C4)c2)cc1
183

Please give the documented EC50 of O=C(N(CC12CCC(c3nc(C4CC4)no3)(CC1)CC2)c1cccc(-c2ncc(OC(F)F)cn2)c1)C12CC(F)(C1)C2
26

Please give the documented EC50 of COc1cc(-c2ccnc(N(CC34CCC(c5nc(C6CC6)no5)(CC3)CC4)C(=O)C34CC(F)(C3)C4)c2)ccn1
398

###

Please provide measured pEC50 for the entries that follow.
Target: FXR (Homo sapiens (Human))
Assay: transient human FXR/Gal4-luciferase reporter assay
Format: cell-based
Details: Gal4-hFXR fusion construct, HEK293 reporter cells; response relative to 8 μM GW-4064
pEC50 (log units): -log10 of the concentration in mol/L.

Please give the documented pEC50 of CC(C)c1noc(C23CCC(CN(C(=O)C45CC(F)(C4)C5)c4cccc(-c5ccc(C(F)(F)F)nc5)c4)(CC2)CC3)n1 [Example 388]
6.04

Please give the documented pEC50 of Cc1nc2ccc(-c3ccnc(N(CC45CCC(c6nc(C(C)(C)C)no6)(CC4)CC5)C(=O)C45CC(F)(C4)C5)c3)cc2s1 [Example 551]
7.26

Please give the documented pEC50 of CC(C)(OC(=O)N(CC12CCC(c3noc(C4(F)CC4)n3)(CC1)CC2)c1cc(-c2ccc(OC(F)F)cc2)ccn1)C(F)(F)F [Example 624]
7.30

###

Please provide measured EC50 for the entries that follow.
Target: FXR (Homo sapiens (Human), UniProt Q96RI1)
Assay: transient human FXR/Gal4-luciferase reporter assay
Type: cell-based
Conditions: Gal4-hFXR fusion construct, HEK293 reporter cells; response relative to 8 μM GW-4064
Express your answer in nM, writing the number without its unit.

Please give the documented EC50 of CC(C)Oc1ccc(-c2ccnc(N(CC34CCC(c5cc(C(C)(F)F)nn5C)(CC3)CC4)C(=O)OC(C)(C)C(F)(F)F)c2)cc1
67

Please give the documented EC50 of CC(F)(F)c1nc(C23CCC(CN(C(=O)C45CC(F)(C4)C5)c4cccc(C5CC5)c4)(CC2)CC3)no1
47

Please give the documented EC50 of CCOc1ncc(-c2cccc(N(CC34CCC(c5noc(C6(C)COC6)n5)(CC3)CC4)C(=O)[C@H]3C[C@@H](OC)C3)c2)cn1
1290

Please give the documented EC50 of CC(C)(C#N)Oc1ccc(-c2ccnc(N(CC34CCC(c5ccc(C(C)(F)F)cn5)(CC3)CC4)C(=O)OC(C)(C)C(F)(F)F)c2)cc1
95

Please give the documented EC50 of CC(C)(O)Cn1cc(-c2cc(N(CC34CCC(c5noc(C(C)(F)F)n5)(CC3)CC4)C(=O)NC34CC(C3)C4)ccc2F)cn1
32

Please give the documented EC50 of CCOc1ccc(-c2cccc(N(CC34CCC(c5noc(C(C)(C)C)n5)(CC3)CC4)C(=O)C34CC(F)(C3)C4)c2)cc1
70
